measuredTarget: HLA-A*24:03
methodSummary: IEDB peptide-MHC binding, purified MHC/competitive/fluorescence; filed as Kd, often an IC50 or EC50 that approximates it; bounds were set here for any values at or beyond the usual limits of such assays
measurementSetup: source organism: Yersinia mollaretii ATCC 43969
pKd: −log10 of the molar value.
testReadout: pKd

Entry DEQEFFYSQ has what pKd?
≤ 4.70

====

measuredTarget: HLA-B*44:02
methodSummary: IEDB peptide-MHC binding, purified MHC/direct/fluorescence; filed as Kd, often an IC50 or EC50 that approximates it; bounds were set here for any values at or beyond the usual limits of such assays
measurementSetup: source organism: Influenza A virus (A/Viet Nam/HN/2004(H5N1))
pKd: −log10 of the molar value.
testReadout: pKd

Entry RNEQGQTLW has what pKd?
≤ 4.70

====

measuredTarget: HLA-A*30:01
methodSummary: IEDB peptide-MHC binding, purified MHC/competitive/fluorescence; filed as Kd, often an IC50 or EC50 that approximates it; bounds were set here for any values at or beyond the usual limits of such assays
measurementSetup: source organism: Variola virus
testReadout: Kd

Give HLA-A*30:01 Kd for ILQDRIRMY
≥ 20 µM

====

measuredTarget: HLA-A*26:01
methodSummary: IEDB peptide-MHC binding, purified MHC/competitive/fluorescence; filed as Kd, often an IC50 or EC50 that approximates it; bounds were set here for any values at or beyond the usual limits of such assays
measurementSetup: source organism: Vibrio vulnificus CMCP6
testReadout: Kd

Entry LMLHQQYNQ has what Kd?
≥ 20 µM

====

measuredTarget: HLA-A*01:01
methodSummary: IEDB peptide-MHC binding, purified MHC/competitive/fluorescence; bounds were set here for any values at or beyond the usual limits of such assays
measurementSetup: source organism: Zaire ebolavirus
Exercise: for every item that follows, state its recorded IC50.

Entry TTEANAGQF has what IC50?
≥ 109 µM

Entry ESDMDYHKI has what IC50?
≥ 118 µM

====

measuredTarget: HLA-A*11:01
methodSummary: IEDB peptide-MHC binding, purified MHC/direct/fluorescence; filed as Kd, often an IC50 or EC50 that approximates it; bounds were set here for any values at or beyond the usual limits of such assays
measurementSetup: source organism: Burkholderia mallei
testReadout: Kd

Give HLA-A*11:01 Kd for EPFSRRHPL
≥ 20 µM

====

Exercise: for every item that follows, state its recorded IC50.
measuredTarget: HLA-B*15:01
methodSummary: IEDB peptide-MHC binding, purified MHC/competitive/fluorescence; bounds were set here for any values at or beyond the usual limits of such assays
measurementSetup: source organism: Zaire ebolavirus
# number only, unit µM dropped from output

Give HLA-B*15:01 IC50 for YQVNNLEEI
54.9

Give HLA-B*15:01 IC50 for GQFLSFASL
1.27

Give HLA-B*15:01 IC50 for QQYAESREL
15.7

Give HLA-B*15:01 IC50 for FQRTFSIPL
2.2

====

measuredTarget: HLA-A*02:12
methodSummary: IEDB peptide-MHC binding, purified MHC/direct/fluorescence; filed as Kd, often an IC50 or EC50 that approximates it; bounds were set here for any values at or beyond the usual limits of such assays
measurementSetup: source organism: Maporal virus
testReadout: Kd

Entry DWMDRIEEF has what Kd?
≥ 20 µM

====

measuredTarget: HLA-B*57:01
methodSummary: IEDB peptide-MHC binding, purified MHC/competitive/fluorescence; filed as Kd, often an IC50 or EC50 that approximates it; bounds were set here for any values at or beyond the usual limits of such assays
measurementSetup: source organism: Escherichia coli str. K-12 substr. W3110
testReadout: Kd

Give HLA-B*57:01 Kd for IQFDWYPTS
≥ 20 µM

====

measuredTarget: HLA-A*03:01
methodSummary: IEDB peptide-MHC binding, purified MHC/competitive/radioactivity; filed as Kd, often an IC50 or EC50 that approximates it; bounds were set here for any values at or beyond the usual limits of such assays
measurementSetup: source organism: Lymphocytic choriomeningitis virus (strain Armstrong)
testReadout: pKd
A value of pKd is the negative decimal logarithm of a concentration given in moles per litre.

Entry RNPYENILYK has what pKd?
5.15

Entry GNFSWFPHK has what pKd?
6.80

Entry SYQYLIIQNR has what pKd?
5.01

Entry TYLGPLSCK has what pKd?
6.78

====

measuredTarget: HLA-A*68:02
methodSummary: IEDB peptide-MHC binding, purified MHC/direct/fluorescence; filed as Kd, often an IC50 or EC50 that approximates it; bounds were set here for any values at or beyond the usual limits of such assays
measurementSetup: source organism: Lake Victoria marburgvirus - Popp
testReadout: Kd

Give HLA-A*68:02 Kd for KNYPASLHK
≥ 20 µM

====

measuredTarget: HLA-A*01:01
methodSummary: IEDB peptide-MHC binding, purified MHC/direct/fluorescence; filed as Kd, often an IC50 or EC50 that approximates it; bounds were set here for any values at or beyond the usual limits of such assays
measurementSetup: source organism: Influenza A virus (A/Viet Nam/HN/2004(H5N1))
testReadout: Kd

Entry RNEQGQTLW has what Kd?
≥ 20 µM

====

measuredTarget: HLA-B*83:01
methodSummary: IEDB peptide-MHC binding, purified MHC/competitive/fluorescence; filed as Kd, often an IC50 or EC50 that approximates it; bounds were set here for any values at or beyond the usual limits of such assays
measurementSetup: source organism: Kurkino virus
testReadout: Kd

Give HLA-B*83:01 Kd for SLYSGFPSL
≥ 5 µM

====

measuredTarget: HLA-A*68:02
methodSummary: IEDB peptide-MHC binding, purified MHC/direct/fluorescence; filed as Kd, often an IC50 or EC50 that approximates it; bounds were set here for any values at or beyond the usual limits of such assays
measurementSetup: source organism: Cowpox virus
testReadout: Kd

Entry ILQDRIRMY has what Kd?
≥ 20 µM

====

measuredTarget: HLA-A*02:01
methodSummary: IEDB peptide-MHC binding, purified MHC/competitive/fluorescence; filed as Kd, often an IC50 or EC50 that approximates it; bounds were set here for any values at or beyond the usual limits of such assays
measurementSetup: source organism: Mycobacterium tuberculosis C
testReadout: pKd
A value of pKd is the negative decimal logarithm of a concentration given in moles per litre.

Give HLA-A*02:01 pKd for TMDPSVRVL
7.38

====

measuredTarget: HLA-B*07:02
methodSummary: IEDB peptide-MHC binding, purified MHC/competitive/fluorescence; bounds were set here for any values at or beyond the usual limits of such assays
measurementSetup: source organism: Zaire ebolavirus
Exercise: for every item that follows, state its recorded IC50.

Entry SPRMLTPIN has what IC50?
5.08 µM

Entry YPTAWQSVG has what IC50?
≥ 174 µM

Entry FQRTFSIPL has what IC50?
3.92 µM

Entry QQYAESREL has what IC50?
≥ 134 µM

Entry KPVPNRSTK has what IC50?
30.9 µM

====

measuredTarget: HLA-A*69:01
methodSummary: IEDB peptide-MHC binding, purified MHC/direct/fluorescence; filed as Kd, often an IC50 or EC50 that approximates it; bounds were set here for any values at or beyond the usual limits of such assays
measurementSetup: source organism: Yellow fever virus 17D
testReadout: Kd

Entry CRTAFKPVL has what Kd?
≥ 20 µM

====

measuredTarget: HLA-A*03:01
methodSummary: IEDB peptide-MHC binding, purified MHC/competitive/fluorescence; filed as Kd, often an IC50 or EC50 that approximates it; bounds were set here for any values at or beyond the usual limits of such assays
measurementSetup: source organism: Vibrio vulnificus CMCP6
pKd: −log10 of the molar value.
testReadout: pKd

Entry LMLHQQYNQ has what pKd?
≤ 4.70

====

measuredTarget: HLA-B*40:01
methodSummary: IEDB peptide-MHC binding, purified MHC/direct/fluorescence; filed as Kd, often an IC50 or EC50 that approximates it; bounds were set here for any values at or beyond the usual limits of such assays
measurementSetup: source organism: Mycobacterium tuberculosis variant bovis
testReadout: Kd (nM)
# number only, unit nM dropped from output

Give HLA-B*40:01 Kd for AEQIVLGVI
61.1

====

measuredTarget: HLA-B*18:01
methodSummary: IEDB peptide-MHC binding, purified MHC/direct/fluorescence; filed as Kd, often an IC50 or EC50 that approximates it; bounds were set here for any values at or beyond the usual limits of such assays
measurementSetup: source organism: Vibrio cholerae V52
testReadout: Kd

Give HLA-B*18:01 Kd for LPYPVLLKI
≥ 20 µM

====

measuredTarget: HLA-B*51:01
methodSummary: IEDB peptide-MHC binding, purified MHC/competitive/fluorescence; filed as Kd, often an IC50 or EC50 that approximates it; bounds were set here for any values at or beyond the usual limits of such assays
measurementSetup: source organism: Escherichia coli O157:H7 str. Sakai
pKd: −log10 of the molar value.
testReadout: pKd

Entry HQIWLALRY has what pKd?
≤ 4.70

====

measuredTarget: HLA-C*12:03
methodSummary: IEDB peptide-MHC binding, purified MHC/direct/fluorescence; filed as Kd, often an IC50 or EC50 that approximates it; bounds were set here for any values at or beyond the usual limits of such assays
measurementSetup: source organism: Rickettsia rickettsii str. 'Sheila Smith'
testReadout: pKd
A value of pKd is the negative decimal logarithm of a concentration given in moles per litre.

Entry FMPESSYLL has what pKd?
6.15
